Molecular target: human galectin-1 (Homo sapiens)
Construct: made in house
Sequence (P09382 whole entry): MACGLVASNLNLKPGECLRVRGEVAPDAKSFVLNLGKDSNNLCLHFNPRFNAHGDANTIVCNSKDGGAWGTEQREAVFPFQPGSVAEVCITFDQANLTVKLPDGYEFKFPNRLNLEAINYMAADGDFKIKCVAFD
Experiment: competitive fluorescence polarization assay, galectin-1
Format: binding
Conditions: Table 2; average and SEM of 4–8 single-triple point measurements; PBS
We label by threshold. Values of Kd strictly beneath 2000 µM are Fulfilled. Values of 2000 µM and up are Not fulfilled.

>  <Structure as smiles>
CO[C@@H]1O[C@H](CO)[C@H](O)[C@@H](CNC(C)=O)[C@H]1O

>  <Assigned class>
Fulfilled

$$$$
>  <Structure as smiles>
COc1cc(OC)cc(C(=O)NC[C@H]2[C@@H](O)[C@@H](CO)O[C@@H](OC)[C@@H]2O)c1

>  <Assigned class>
Fulfilled

$$$$
>  <Structure as smiles>
CO[C@@H]1O[C@H](CO)[C@H](O)[C@H](CNC(=O)c2ccc(-c3ccccc3)cc2)[C@H]1O

>  <Assigned class>
Not fulfilled

$$$$
>  <Structure as smiles>
CO[C@@H]1O[C@H](CO)[C@H](O)[C@H](CNC(=O)c2ccccc2F)[C@H]1O

>  <Assigned class>
Fulfilled

$$$$
>  <Structure as smiles>
CO[C@@H]1O[C@H](CO)[C@H](O)[C@H](CNC(=O)c2cccc(C(F)(F)F)c2)[C@H]1O

>  <Assigned class>
Fulfilled

$$$$
>  <Structure as smiles>
CO[C@@H]1O[C@H](CO)[C@H](O)[C@H](CNC(=O)c2ccc(F)cc2)[C@H]1O

>  <Assigned class>
Fulfilled

$$$$
>  <Structure as smiles>
CO[C@@H]1O[C@H](CO)[C@H](O)[C@H](CNC(=O)c2ccc(C)cc2)[C@H]1O

>  <Assigned class>
Not fulfilled

$$$$
>  <Structure as smiles>
CO[C@@H]1O[C@H](CO)[C@H](O)[C@H](CNC(=O)c2cccc(F)c2)[C@H]1O

>  <Assigned class>
Fulfilled

$$$$
>  <Structure as smiles>
CO[C@@H]1O[C@H](CO)[C@H](O)[C@H](CNC(=O)c2cc(F)c(F)c(F)c2)[C@H]1O

>  <Assigned class>
Not fulfilled

$$$$
>  <Structure as smiles>
COc1cccc(C(=O)NC[C@H]2[C@@H](O)[C@@H](CO)O[C@@H](OC)[C@@H]2O)c1

>  <Assigned class>
Not fulfilled

$$$$
>  <Structure as smiles>
CO[C@@H]1O[C@H](CO)[C@H](O)[C@@H](NC(=O)c2ccccc2)[C@H]1O

>  <Assigned class>
Not fulfilled

$$$$
>  <Structure as smiles>
CO[C@@H]1O[C@H](CO)[C@H](O)[C@H](CNC(=O)c2c(F)c(F)c(F)c(F)c2F)[C@H]1O

>  <Assigned class>
Fulfilled

$$$$

---

Below is a list of entries, each paired with its recorded pKd value.
Molecular target: human galectin-4N (N-terminal domain) (Homo sapiens)
Construct: 4N (N-terminal domain) 4C (C-terminal domain); made in house
Sequence (P56470 19-150 limits assumed): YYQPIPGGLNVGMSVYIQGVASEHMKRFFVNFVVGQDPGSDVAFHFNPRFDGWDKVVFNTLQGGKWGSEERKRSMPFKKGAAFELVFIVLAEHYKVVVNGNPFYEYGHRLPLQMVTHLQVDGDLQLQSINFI
Experiment: competitive fluorescence polarization assay, galectin-4N
Type: binding
Details: Table 2; N-terminal domain; average and SEM; PBS
pKd: −log10 of the molar value.

>  <Compound>
CO[C@@H]1O[C@H](CO)[C@H](O)[C@H](CNC(=O)c2c(F)c(F)c(F)c(F)c2F)[C@H]1O [Compound 7g]

>  <pKd>
< 2.40

$$$$
>  <Compound>
CO[C@@H]1O[C@H](CO)[C@H](O)[C@H](CNC(=O)c2cccc(F)c2)[C@H]1O [Compound 7d]

>  <pKd>
< 2.40

$$$$
>  <Compound>
CO[C@@H]1O[C@H](CO)[C@H](O)[C@H](CNC(=O)c2ccc(-c3ccccc3)cc2)[C@H]1O [Compound 7l]

>  <pKd>
< 2.40

$$$$
>  <Compound>
CO[C@@H]1O[C@H](CO)[C@H](O)[C@H](CNC(=O)c2ccc(C)cc2)[C@H]1O [Compound 7i]

>  <pKd>
< 2.40

$$$$
